# Protocol Conditions: in n-pentyl acetate, 298.15 K
Readout: solubility (mole fraction)

So what does the record say about solubility (mole fraction) for CCCCN(CCCC)CC(O)c1cc(Cl)cc2c1-c1ccc(Cl)cc1/C2=C/c1ccc(Cl)cc1 (stereo unspecified) ?
0.0137

====

# Protocol Conditions: in methyl acetate, 288.15 K
Readout: solubility (mole fraction)
No unit in the answer, please; the number alone is enough.

Could you share which solubility (mole fraction) value was measured for CCCCN(CCCC)CC(O)c1cc(Cl)cc2c1-c1ccc(Cl)cc1/C2=C/c1ccc(Cl)cc1 (stereo unspecified) ?
0.00136

====

# Protocol Conditions: in ethyl acetate, 313.15 K
Readout: solubility (mole fraction)

Bench note: what solubility (mole fraction) did CCCCN(CCCC)CC(O)c1cc(Cl)cc2c1-c1ccc(Cl)cc1/C2=C/c1ccc(Cl)cc1 (stereo unspecified) show?
0.0116
